These data points were gathered from patent US20240279227A1.

Tested on: HBV
protocolDetails: Anti-HBV activity in HepG2.117 cell line (intracellular HBV DNA, real-time PCR)
Format: cell-based, hepatitis B virus
details: HepG2.117 cells, HBV replication induced, 3 days of treatment, intracellular HBV DNA by real-time PCR
I'd appreciate it if you could label each record using EC50 and these ranges: group 1: < 0.04 µM; group 2: ≥ 0.04 µM and < 0.06 µM; group 3: ≥ 0.06 µM

molecule	groupLabel
CNC(=O)[C@@H]1CN(C(C)c2ccc(C3CC3)nc2)C(=O)c2c3c(nn21)C[C@@H](C)N(C(=O)c1ccc(Cl)c(Cl)c1)C3 (single isomer, unassigned) [Compound 32A]	group 2
CNC(=O)[C@@H]1CN(C(C)c2cnc(C(F)(F)F)nc2)C(=O)c2c3c(nn21)C[C@@H](C)N(C(=O)c1ccc(Cl)c(C(F)(F)F)c1)C3 (single isomer, unassigned) [Compound 43B]	group 2
CNC(=O)[C@@H]1CN(C(C)c2ccc(OC(F)F)nc2)C(=O)c2c3c(nn21)C[C@@H](C)N(C(=O)c1ccc(Cl)c(Cl)c1)C3 (single isomer, unassigned) [Compound 11A]	group 3
CNC(=O)[C@@H]1CN(C(C)c2ccc(-c3c(C)noc3C)nc2)C(=O)c2c3c(nn21)C[C@@H](C)N(C(=O)c1ccc(Cl)c(Cl)c1)C3 (single isomer, unassigned) [Compound 35B]	group 3
CNC(=O)[C@@H]1CN(C(C)c2ccc(-n3cncn3)cc2)C(=O)c2c3c(nn21)C[C@@H](C)N(C(=O)c1ccc(Cl)c(Cl)c1)C3 (single isomer, unassigned) [Compound 2A]	group 2
CNC(=O)[C@@H]1CN(C(C)c2ccc(-n3ncnc3C)cn2)C(=O)c2c3c(nn21)C[C@@H](C)N(C(=O)c1ccc(Cl)c(Cl)c1)C3 (single isomer, unassigned) [Compound 41B]	group 3
CC(c1ccc(OC(F)F)nc1)N1C[C@@H](C(N)=O)n2nc3c(c2C1=O)CN(C(=O)c1ccc(Cl)c(Cl)c1)[C@H](C)C3 (single isomer, unassigned) [Compound 12B]	group 1
CNC(=O)[C@@H]1CN(C(C)c2ccc(OC)nc2)C(=O)c2c3c(nn21)C[C@@H](C)N(C(=O)c1ccc(Cl)c(Cl)c1)C3 (single isomer, unassigned) [Compound 31B]	group 1

###

# maps each entry to its EC50
Tested on: HBV
protocolDetails: Anti-HBV activity in HepG2.117 cell line (intracellular HBV DNA, real-time PCR)
Type: cell-based, hepatitis B virus
details: HepG2.117 cells, HBV replication induced, 3 days of treatment, intracellular HBV DNA by real-time PCR

compound	measuredOn	EC50 (µM)
CNC(=O)[C@@H]1CN(C(C)c2ccc(S(=O)(=O)C3CC3)cc2)C(=O)c2c3c(nn21)C[C@@H](C)N(C(=O)c1ccc(Cl)c(C(F)(F)F)c1)C3 (single isomer, unassigned) [Compound 20B]	HBV	0.022
CNC(=O)[C@@H]1CN(C(C)c2ccc(OC)nc2)C(=O)c2c3c(nn21)C[C@@H](C)N(C(=O)c1ccc(Cl)c(Cl)c1)C3 (single isomer, unassigned) [Compound 31A]	HBV	0.066
CNC(=O)[C@@H]1CN(C(C)c2ccc(C3CC3)nc2)C(=O)c2c3c(nn21)C[C@@H](C)N(C(=O)c1ccc(Cl)c(Cl)c1)C3 (single isomer, unassigned) [Compound 32B]	HBV	0.011
CNC(=O)[C@@H]1CN(C(C)c2ccc(S(=O)(=O)C3CC3)cc2)C(=O)c2c3c(nn21)C[C@@H](C)N(C(=O)c1ccc(Cl)c(C(F)(F)F)c1)C3 (single isomer, unassigned) [Compound 20A]	HBV	0.089
CNC(=O)[C@@H]1CN(C(C)c2ccc(C(F)F)nc2)C(=O)c2c3c(nn21)C[C@@H](C)N(C(=O)c1ccc(Cl)c(Cl)c1)C3 (single isomer, unassigned) [Compound 36B]	HBV	0.05
